target: GUN4 Δ1–69 (GENOMES UNCOUPLED 4) (Arabidopsis thaliana, UniProt Q9LX31, F191A); test: tryptophan fluorescence quenching; format: binding
reported-property: pKd
// field semantics: pKd = negative decimal log of concentration (mol/L)

Query: For the compound "CC1=C(CCC(=O)O)c2cc3nc(cc4[nH]c(cc4C)cc4[nH]c(cc1n2)cc4C)C(C)=C3CCC(=O)O" , give its measured pKd value.
Result: 4.92

###

Target: GUN4 Δ1–69 (GENOMES UNCOUPLED 4) (Arabidopsis thaliana)
Sequence (Q9LX31 70-265): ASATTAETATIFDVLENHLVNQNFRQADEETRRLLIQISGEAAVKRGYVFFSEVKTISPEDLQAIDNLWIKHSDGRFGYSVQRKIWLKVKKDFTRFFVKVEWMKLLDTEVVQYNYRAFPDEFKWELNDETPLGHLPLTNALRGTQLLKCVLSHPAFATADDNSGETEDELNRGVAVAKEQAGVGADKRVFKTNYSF
reported-property: Kd (µM)
// return numeric value only (unit: µM, not printed)

Query: For the compound C=CC1=C(C)c2cc3[nH]c(cc4nc(cc5[nH]c(cc1n2)c(C)c5CCC(=O)O)C(CCC(=O)O)=C4C)c(C)c3C=C [PPIX] , give its measured Kd value.
Result: 11

Query: For the compound CC1=C(CCC(=O)O)c2cc3nc(cc4[nH]c(cc5[nH]c(cc1n2)c(C)c5CCC(=O)O)c(CCC(=O)O)c4C)C(CCC(=O)O)=C3C [Coproporphyrin III] , give its measured Kd value.
Result: 15

Query: For the compound C=Cc1c(C)c2cc3nc(c4c5[nH]c(cc6nc(cc1[nH]2)C(C)=C6CC)c(C)c5C(=O)[C@@H]4C(=O)OC)[C@@H](CCC(=O)O)[C@@H]3C [Pheophorbide a] , give its measured Kd value.
Result: 3.8

Query: For the compound O=C(O)CCC1=C(CC(=O)O)c2cc3[nH]c(cc4nc(cc5[nH]c(cc1n2)c(CC(=O)O)c5CCC(=O)O)C(CCC(=O)O)=C4CC(=O)O)c(CC(=O)O)c3CCC(=O)O [Uroporphyrin III] , give its measured Kd value.
Result: 10

Query: For the compound C=CC1=C(C)C2=Cc3c(C=C)c(C)c4[n]3[Fe]([Cl])[n]3c(c(C)c(CCC(=O)O)c3=CC3=NC(=C4)C(C)=C3CCC(=O)O)=CC1=N2 [Hemin] , give its measured Kd value.
Result: 8.1

Query: For the compound CC1=C(CCC(=O)O)c2cc3nc(cc4[nH]c(cc4C)cc4[nH]c(cc1n2)cc4C)C(C)=C3CCC(=O)O [DPIX] , give its measured Kd value.
Result: 6.4
